- PROTOCOL_NOTES: MRP1 drug-resistance reversers in H69AR cells – cell-based, doxorubicin co-treatment, pilot screen (AID 601)
- MEASUREMENT_CONDITIONS: H69AR cells, CellTiter-Glo, 72 h; compound alone cytotoxicity; at 10 µM
MEASURED_METRIC: viability
State the value with its unit after it.

>>> result("CCN(CC)c1ccc2cc(-c3nc4ccccc4[nH]3)c(=O)oc2c1")
"3.43%"
>>> result("COc1ccc(OCCCC(=O)Nc2nncs2)cc1")
"89.6%"
>>> result("Cn1c(=O)c2c(nc(SCCOc3ccc4ccc(=O)oc4c3)n2C)n(C)c1=O")
"104%"

Lab book: viability of CCCCc1nc2ccccc2n2cc3c(=O)n(C)c(=O)n(C)c3c12 noted as 89.6%

Kindly note the recorded viability for COCCNC(=O)CN(C)S(=O)(=O)c1ccc(Br)cc1 , which is 104%

viability reading for CCCCN(CC)CCNC(=O)c1cc2c(C)nc3ccccc3c2o1 : 85.3%

Lab note: COC(=O)C(C)Sc1nc2c(c(=O)n1-c1ccccc1)SCC2 (centres undefined) gave viability of 94.9%

The recorded viability for COc1ccc(NC(=O)CC2CCCCC2)cc1OC is 103%

Lookup result for COc1cccc(-c2nc3n(n2)C(c2ccccc2Cl)C(C(N)=O)=C(C)N3)c1 (centres undefined) ; measured viability: 90.4%

----------
- PROTOCOL_NOTES: H69AR cell proliferation blockers – human, duplicate replicates, primary screen (AID 580);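 note: 100% = mean luminescence of untreated wells and 0% = no signal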
- MEASUREMENT_CONDITIONS: H69AR lung tumor cells viability, ATP luminescence, 72 h; at 10 µM; stronger effect = lower value
Sorting guide: entries reporting viability beneath 90% go in the YES pile, the rest go in the NO pile.

Reference set, count: 2
>>> class_assignment("Brc1ccccc1-c1nc(-c2ccccc2)no1")
"YES"
>>> class_assignment("O=C(c1ccc(Cl)s1)N1CCN(c2nc3ccccc3s2)CC1")
"YES"

-- ask Decide: viability of O=C(NCc1ccco1)C1CCN(c2ccc(N3CCOCC3)nn2)CC1 strictly below 90%?
-- reply YES

-- ask In plain terms, does C=CCNC(=O)CSc1nc2sc(C)c(C)c2c(=O)[nH]1 come in under 90% for viability?
-- reply YES

-- ask Is 90% strictly greater than the compound's reported viability? compound: CCCCS(=O)(=O)NC1=NCN(CCOC(=O)c2ccccc2)CN1
-- reply NO

-- ask Just wondering, is viability of CC(=O)n1cc(-c2ccncc2)c2ccccc21 below 90%?
-- reply YES

-- ask Dear reviewer, please state whether C=CCn1c(COc2ccc(CC)cc2)nnc1SC/C(O)=C(\C#N)c1nc2ccccc2[nH]1 has viability strictly beneath 90%.
-- reply NO

-- ask Determine whether this compound shows viability lower than 90% (ties excluded): O=C(NCc1ccccc1)C1CCN(S(=O)(=O)c2cccc3cccnc23)CC1
-- reply NO

-- ask Strictly below 90%: is that where viability of Cc1cc(C)cc(N(CC(=O)Nc2cccc(C)n2)S(=O)(=O)c2c(C)noc2C)c1 sits?
-- reply YES

----------
Let's look at some molecules and their measured inhibition.
- PROTOCOL_NOTES: RAM pathway blockade in budding yeast – dse1pr::URA3 reporter, 5-FOA selection, pilot screen (AID 869);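 note: 0% = DMSO wells with no growth and 100% = 10 µM 1-NA-PP1 with full growth; RAM network block rescues cells from 5-FOA so hits raise OD615 growth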
- MEASUREMENT_CONDITIONS: S. cerevisiae dse1pr::URA3 5-FOA growth, OD615, 2 d; at 10 µM; stronger effect = higher value; strain carries analog-sensitive mutant Cbk1 kinase
Please give a number only; it is taken to be in %.

Guide cases for inhibition, answers given:
>>> recorded_number("O=C(Nc1nnc(-c2ccc(Cl)cc2)o1)C1CCCCC1")
1.51
>>> recorded_number("Cc1noc(C)c1S(=O)(=O)N1CCN(Cc2ccc3c(c2)OCO3)CC1")
0.725
>>> recorded_number("Cc1nnc(N2C(=O)C(O)=C(C(=O)c3ccco3)C2c2ccc(F)cc2)s1 (stereo unspecified)")
0.21
>>> recorded_number("CC1(C)Cc2ccccc2C(N)=C1C#N")
0.81
>>> recorded_number("O=P(O)(CN1CCCCCC1)CN1CCCCCC1")
0.24

The record that follows has no inhibition shown yet.
// inhibition value for Cc1ccccc1-n1nc(C(=O)O)c(C)c(C#N)c1=O : 2.41

----------
Listed molecules paired with reported growth inhibition
- PROTOCOL_NOTES: S. cerevisiae growth inhibition in restrictive medium, OD615, pilot screen, restrictive growth control, yeast lifespan reduction project (AID 706);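 note: modified DeaD lifespan yeast strain shifted to restrictive glucose medium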
- MEASUREMENT_CONDITIONS: OD615, 48 h, at 10 µM, stronger effect = higher value
Return type: number; implicit unit %.

Guide cases for growth inhibition, answers given:
>>> recorded_number("COc1ccc(S(=O)(=O)NCC(c2cccnc2)N2CCN(C)CC2)cc1C (configuration not stated)")
-9.37
>>> recorded_number("CC(=O)OCCNc1cc(N2CCN(C)CC2)c2noc3c2c1C(=O)c1ccccc1-3")
-9.2
>>> recorded_number("CN1CCN(C(=O)c2ccc(CS(=O)(=O)c3c(Cl)cccc3Cl)o2)CC1")
-12
>>> recorded_number("COCCCNC(=O)c1cc2c(-c3ccc(Cl)cc3)nn(C)c2s1")
1.75

growth inhibition measured on CCSCCOC(=O)C1=C(C)NC(=O)NC1c1cccc(OC)c1OC (configuration not stated) = -9.84

Documented growth inhibition of Cc1c(NC(=O)c2noc3c2CCc2ccccc2-3)c(=O)n(-c2ccccc2)n1C : 6.45

Just so you know, measured growth inhibition for O=C(O)c1cnn2c1NC(c1cccs1)CC2C(F)(F)F (configuration not stated) came out at -21.6

Lab note: measured growth inhibition of CCOC(=O)C1CCN(C(c2cccc(OC)c2)c2sc3nc(C)nn3c2O)CC1 (configuration not stated) was -6.39

Lab note: O=C(c1sc2ccccc2c1Cl)N(Cc1cccs1)C1CCS(=O)(=O)C1 (configuration not stated) gave growth inhibition of -11.5

Short answer for O=C(Cn1c(=O)oc2cc(S(=O)(=O)N3CCCCCC3)ccc21)NC1CCCCCCC1 : growth inhibition was -14.8

The value of growth inhibition measured for the molecule Cc1ccc(C(=O)OCC(=O)Nc2ccc3c(c2)OCO3)o1 turned out to be -8.6

Please fill in: growth inhibition reported for Cn1cccc1Cc1nnc(SCC(=O)N2CCCCCC2)n1-c1ccc(F)cc1 = 18

Entry CN(C1CCCCC1)S(=O)(=O)c1ccc(S(=O)(=O)N2CCN(CCC#N)CC2)cc1 — recorded growth inhibition = -3.55

Field growth inhibition (entry CCCN1CCC(N(C)CCc2ccc(OC)c(OC)c2)CC1 ) reads -16.1

Documented growth inhibition of CC(Oc1ccc2oc(-c3ccccc3)c(C(=O)O)c2c1)C(=O)O (configuration not stated) : 2.06

Memo: Cc1c(C(=O)O)oc2ccc(S(=O)(=O)N3CCCCC3C(=O)O)cc12 (configuration not stated) , reported growth inhibition: -3.15

----------
Listed below: RAM network inhibition values for each entry.
- PROTOCOL_NOTES: RAM signaling pathway blockade in yeast – S. cerevisiae, Pdr1DBD-CYC8 efflux-inhibited sensitized strain, primary screen (AID 1298);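 note: 0% = DMSO untreated cells without growth and 100% = 10 µM 1-NA-PP1 full growth; higher means more yeast growth rescued from 5-FOA killing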
- MEASUREMENT_CONDITIONS: S. cerevisiae cbk1-as DSE1-URA3 strain, 5-FOA growth OD615, 2 d; at 50 µM; stronger effect = higher value
Write down the numeric answer in % and omit the unit.

Sample answers from the record:
>>> recorded_number("CC1(C)CC(=O)c2cnc(NC(=O)CCc3ccccc3)nc2C1")
6.48
>>> recorded_number("CCOc1ccccc1NC(=O)C1CCCN(S(=O)(=O)c2cccc3cccnc23)C1 (stereo unspecified)")
4.95
>>> recorded_number("O=C(c1cccs1)N1CCc2ccccc21")
1.66
>>> recorded_number("CCCC(=O)c1cc(F)c(N2CCN(S(=O)(=O)c3ccccc3)CC2)cc1C")
3.18
>>> recorded_number("CCSC(C)CC1C/C(=N/O)c2c(CC)noc2C1 (stereo unspecified)")
0.17
>>> recorded_number("COC(=O)Cc1cc(=O)[nH]c(Nc2nc3ccccc3o2)n1")
5.31
>>> recorded_number("CCOC(=O)N1CCN(C(=O)c2ccc(CS(=O)(=O)c3c(Cl)cccc3Cl)o2)CC1")
1.21
>>> recorded_number("CCn1c(SCC(=O)Nc2cccc(C)c2)nc2c(c1=O)SC(C)C2 (stereo unspecified)")
10.2

Looking up CCCCOCCCNC(=O)c1ccc(NC(C)=O)cc1 , I found its RAM network inhibition recorded as -0.63

Noted for CC1CCN(C(=O)CSCC(=O)Nc2nc(-c3cccs3)cs2)CC1 : its RAM network inhibition reads -0.16

Kindly note the recorded RAM network inhibition for COc1ccc(C)cc1NC(=O)C1CCN(S(=O)(=O)c2cccc3cccnc23)CC1 , which is 4.45

----------
Each item that follows carries a reported viability.
- PROTOCOL_NOTES: HUVEC growth inhibition – cell-based, human, primary screen (AID 575);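 note: 100% = median of untreated cell wells with 0.1% DMSO on each plate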
- MEASUREMENT_CONDITIONS: HUVEC proliferation, CellTiter-Glo luminescence, 72 h; at 10 µM; stronger effect = lower value
# output: bare number, implied unit %

Below, each entry is followed by its recorded viability result.
>>> recorded_number("Cc1cc(C)c2c(=O)n(CC(=O)N3CCC(Cc4ccccc4)CC3)sc2n1")
77
>>> recorded_number("COc1cccc(C2C(C(=O)c3cccs3)=C(O)C(=O)N2CCCn2ccnc2)c1OC (stereo not given)")
102

// field: viability; key: Cc1cc(N=Cc2cc(Br)ccc2O)no1 ; value = 74.4

Consider COc1ccccc1N1C(=O)CCC1(C#N)c1ccccc1 (stereo not given) . Its measured viability is 104

Summary for this compound, O=C1c2ccccc2C(Nc2ccc3c(c2)OCO3)N1Cc1ccc2c(c1)OCO2 (stereo not given) : viability is 50

Lab note: CCCCCn1c(CN2CCN(C(=O)c3ccco3)CC2)nc2c1c(=O)n(C)c(=O)n2C gave viability of 92.8

viability reading for Cc1noc(/C=C/N(C)C)c1S(=O)(=O)N1CCc2ccccc21 : 67.4

# viability of O=C(NCc1ccccc1)C1CCN(S(=O)(=O)c2cccc3cccnc23)CC1 = 99

Briefly, viability measured for Cc1cc(C)c2c(=O)n(CC(=O)NCCCN3CCOCC3)sc2n1 : 64.1

Entry CC(=O)Nc1nc(-c2ccccc2)nc(C)c1C(C)=O ; viability = 103

Lab book: viability of CN(C)CCCN1C(=O)c2oc3ccc(Cl)cc3c(=O)c2C1c1cccnc1 (stereo not given) noted as 96.7

// recorded viability for Cc1ccc(C)c(NC(=O)CSc2nnc(-c3ccccc3)o2)c1 : 111

Field viability (entry COc1nc(Oc2ccc(=O)n(C)n2)nc(N(C)C)n1 ) reads 88.5

For record CCc1cc2c(=O)c(-c3nc4ccccc4[nH]3)coc2c(CN2CCC(C)CC2)c1O the listed viability is 99.1

Note to self: viability recorded for O=C(Oc1ccc2ccc(OC(=O)N3CCOCC3)cc2c1)N1CCOCC1 was 108

// recorded viability for Cc1ccc(C(c2sc3ncnn3c2O)N2CC(C)CC(C)C2)cc1 (stereo not given) : 82.8

GET /value?item= COc1ccccc1NC(=O)N1CCN(c2cccc(C(F)(F)F)c2)CC1 &field=viability returns 78.1

For this compound ( CCOC(=O)c1nc2sc3c(c2c(=O)[nH]1)CCCC3 ), measured viability is 93.8

For reference, reported viability for Cc1cccc(-n2ncc3c(NCCCn4ccnc4)ncnc32)c1 stands at 111

Reported viability ( Cc1nc2ccc(S(=O)(=O)NC(C(=O)N3CCCC3)C(C)C)cc2s1 (stereo not given) ) = 111

Query O=C(O)C1C2C=CC3(CN(C4CCCC4)C(=O)C13)O2 (stereo not given) yields viability of 100
